- Test system: Hep-3B cells
- protocol: Cellular assay: erythropoietin secretion in Hep-3B cells
- Assay type: cell-based, human
- experimental-conditions: Homo sapiens, Hep3B, 100 μM compound, 24 hours, percent of EPO secretion relative to assay control compound 7-[(4-Chloro-phenyl)-(5-methyl-isoxazol-3-ylamino)-methyl]-quinolin-8-ol, read-out: Cellular % EPO Stimulation
# Emax at 100 µM values compiled below
Param answer (str): number followed by unit.

O=C(O)c1cnn(-c2nc3cc(-c4cccc(Cl)c4)ccc3c(=O)[nH]2)c1 [Example 186] :: 26%
O=C(O)c1cnn(-c2nc3ccc(C4CCCCC4)cc3c(=O)[nH]2)c1 [Example 21] :: 84%
O=C(O)c1cnn(-c2nc3cc(OC(F)(F)F)ccc3c(=O)[nH]2)c1 [Example 148] :: 10%
O=C(O)c1cnn(-c2nc3ccc(N4CCCCC4)cc3c(=O)[nH]2)c1 [Example 124] :: 71%

Known value: Hep-3B cells Emax at 100 µM of the molecule O=C(O)c1cnn(-c2nc3ccc(F)cc3c(=O)[nH]2)c1 [Example 4] equals 15%

* * *

- System: Hep-3B cells
- protocol: Cellular assay: erythropoietin secretion in Hep-3B cells
- Assay type: cell-based, human
- experimental-conditions: Homo sapiens, Hep3B, 100 μM compound, 24 hours, percent of EPO secretion relative to assay control compound 7-[(4-Chloro-phenyl)-(5-methyl-isoxazol-3-ylamino)-methyl]-quinolin-8-ol, read-out: Cellular % EPO Stimulation
measurement-kind: Emax at 100 µM (%)
Please state the figure in %; there is no need to write the unit.

O=C(O)c1cnn(-c2nc3ccc(-c4cccc(-c5ccccc5)c4)cc3c(=O)[nH]2)c1 :: 41
O=C(O)c1cnn(-c2nc3ccc(COc4ccccc4)cc3c(=O)[nH]2)c1 :: 35
Cc1cccc(-c2ccc3c(=O)[nH]c(-n4cc(C(=O)O)cn4)nc3c2)c1 :: 25

According to the records, this compound `O=C(O)c1cnn(-c2nc3c(F)cc(Br)cc3c(=O)[nH]2)c1` displays Emax at 100 µM of 12

According to the records, this compound `O=C(O)c1cnn(-c2nc3cc(Cl)c(-c4ccccc4)cc3c(=O)[nH]2)c1` displays Emax at 100 µM of 59

According to the records, this compound `O=C(O)c1cnn(-c2nc3c4c(ccc3c(=O)[nH]2)OCCO4)c1` displays Emax at 100 µM of 40

According to the records, this compound `O=C(O)c1cnn(-c2nc3ccc(Oc4ccc(Cl)cc4)cc3c(=O)[nH]2)c1` displays Emax at 100 µM of 126

* * *

# IC50 values compiled below
- assayed-system: human PHD2 (PHD2181-417) (Homo sapiens)
- Construct: Smt (SUMO) tag (cleaved yes); made in house; host or cells: E. coli BL21 (pBAD vector)
- Sequence (Q9GZT9 181-417): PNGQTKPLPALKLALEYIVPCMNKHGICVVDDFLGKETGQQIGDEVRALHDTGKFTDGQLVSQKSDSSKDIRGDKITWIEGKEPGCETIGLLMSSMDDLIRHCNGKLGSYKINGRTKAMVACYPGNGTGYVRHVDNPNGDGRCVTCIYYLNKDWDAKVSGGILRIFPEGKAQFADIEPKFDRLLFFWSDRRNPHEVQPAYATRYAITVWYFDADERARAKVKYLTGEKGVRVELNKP
- protocol: PHD enzymatic assay ([14C]-succinic acid production)
- Format: biochemical
- experimental-conditions: PHD2181-417, HIF-1α peptide 10 μM, average of results; read-out: Enzyme pIC50 (converted)
Please state the figure in nM; there is no need to write the unit.

Some solved cases for reference:
O=C(O)c1cnn(-c2nc3cc(Cl)c(OC(F)(F)F)cc3c(=O)[nH]2)c1 :: 31.6
Cc1cc(C)cc(Oc2cc3c(=O)[nH]c(-n4cc(C(=O)O)cn4)nc3cc2F)c1 :: 20
Cc1cccc(C)c1Oc1cc2c(=O)[nH]c(-n3cc(C(=O)O)cn3)nc2cc1F :: 25.1

Known value: human PHD2 (PHD2181-417) (Homo sapiens) IC50 of the compound `O=C(O)c1cnn(-c2nc3cc(F)c(C4CCCCC4)cc3c(=O)[nH]2)c1` equals 158
